experimental_system: human recombinant A3AR (expressed in HEK-293 cells) (Homo sapiens)
Construct: host or cells: HEK-293 cells
Sequence (P0DMS8 whole entry): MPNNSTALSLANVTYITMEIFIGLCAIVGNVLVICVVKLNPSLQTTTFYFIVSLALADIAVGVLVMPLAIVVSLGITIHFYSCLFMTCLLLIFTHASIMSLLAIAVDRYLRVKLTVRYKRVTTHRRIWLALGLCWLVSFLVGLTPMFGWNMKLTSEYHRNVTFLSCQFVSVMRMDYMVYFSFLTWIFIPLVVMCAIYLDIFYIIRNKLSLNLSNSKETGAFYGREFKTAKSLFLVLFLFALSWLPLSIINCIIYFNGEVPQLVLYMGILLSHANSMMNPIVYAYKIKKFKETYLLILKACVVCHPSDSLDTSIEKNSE
test_method_notes: Adenosine receptors antagonism assay (Eurofins), [125I]-AB-MECA radioligand competition
Assay type: binding
protocol_conditions: [125I]-AB-MECA 0.15 nM, r.t., 120 min; IC50 from dose-response curves; read-out: Potency Class A3AR
measurement_type: IC50

See these solved cases before continuing.
CCC(CC)Nc1cc(NCc2ccccc2O)c2nnc(C(C)C)n2n1	1 to 10 nM
CC(C)c1nnc2c(NCc3ccccc3O)cc(N[C@@H]3CCCOC3)nn12	10 to 100 nM
CC(C)c1nnc2c(NCc3ccccc3)cc(NCc3nccn3C)nn12	100 to 1000 nM
c1ccc(CNc2cc(NC3CC3)nn3c(C4CC4)nnc23)nc1	10 to 100 nM
CCC(CC)Nc1cc(Nc2cc(OC)ccn2)c2nnc(C(C)C)n2n1	1 to 10 nM

Ask: Data request, read-out IC50, for "CC[C@@H](CO)Nc1cc(NCc2ccc(-c3cccnc3)cc2)c2nnc(C(C)C)n2n1"
Reply: 10 to 100 nM

Ask: Data request, read-out IC50, for "CCC(CC)Nc1cc(Nc2ccc(OC)cn2)c2nnc(C(C)C)n2n1"
Reply: < 1 nM

Ask: Data request, read-out IC50, for "CSCCNc1cc(NCc2ccccc2)c2nnc(C(C)C)n2n1"
Reply: 10 to 100 nM

Ask: Data request, read-out IC50, for "CCC(CC)Nc1cc(NCc2ccccn2)c2nnc(C3CCC3)n2n1"
Reply: 1 to 10 nM

###

experimental_system: human recombinant A3AR (expressed in HEK-293 cells) (Homo sapiens)
Construct: host or cells: HEK-293 cells
test_method_notes: Adenosine receptors antagonism assay (Eurofins), [125I]-AB-MECA radioligand competition
Format: binding
protocol_conditions: [125I]-AB-MECA 0.15 nM, r.t., 120 min; IC50 from dose-response curves; read-out: Potency Class A3AR
pIC50: −log10 of the molar value.
measurement_type: pIC50

See these solved cases before continuing.
c1ccc(CNc2cc(NC3CCCC3)nn3c(C4CC4)nnc23)nc1	8.00 to 9.00
CC(C)c1nnc2c(NCc3ccccc3)cc(NC3CCC3)nn12	7.00 to 8.00
COC1CCC(Nc2cc(NCc3ccccc3)c3nnc(C(C)C)n3n2)CC1 (racemic)	6.00 to 7.00
CCC(CC)Nc1cc(NCCc2ccccc2)c2nnc(C(C)C)n2n1	8.00 to 9.00

Here is the next item to consider.
Ask: Data request, read-out pIC50, for "CC(C)c1nnc2c(NCCc3ccccn3)cc(NC3CCCC3)nn12"
Reply: 8.00 to 9.00

###

experimental_system: human recombinant A3AR (expressed in HEK-293 cells) (Homo sapiens)
Construct: host or cells: HEK-293 cells
test_method_notes: Adenosine receptors antagonism assay (Eurofins), [125I]-AB-MECA radioligand competition
Assay type: binding
protocol_conditions: [125I]-AB-MECA 0.15 nM, r.t., 120 min; IC50 from dose-response curves; read-out: Potency Class A3AR
pIC50: −log10 of the molar value.
pIC50 overview

Ask: Data request, read-out pIC50, for CCC(CC)Nc1cc(NC(=O)c2ccccn2)c2nnc(C(C)C)n2n1 [compound 97]
Reply: 7.00 to 8.00

Ask: Data request, read-out pIC50, for CCC(CC)Nc1cc(NCc2cccnc2)c2nnc(C(C)C)n2n1 [compound 50]
Reply: 8.00 to 9.00

Ask: Data request, read-out pIC50, for CCC(CC)Nc1cc(NCc2ccc(N)cc2)c2nnc(C(C)C)n2n1 [compound 75]
Reply: 8.00 to 9.00
